- System: oocyst formation
- Protocol text: Standard membrane feeding assay (SMFA), oocyst formation in Anopheles coluzzii
- Type: in vivo
- Condition context: Plasmodium falciparum; 48 h drug treatment at 2 μM, single biological repeat; read-out: oocyst formation (% inhibition) TBA
Parameter measured: inhibition at 2 µM (%)
Field format: number, assumed %, no unit text.

Fill blank: measured inhibition at 2 µM of the compound CC(C)=CCC/C(C)=C/CNCCCNC1C2CC3CC(C2)CC1C3 (stereo not drawn) is ____.
64

Fill blank: measured inhibition at 2 µM of the compound CCCCC1(NCCNC/C=C(\C)CCC=C(C)C)C2CC3CC(C2)CC1C3 (stereo not drawn) is ____.
36

Fill blank: measured inhibition at 2 µM of the compound CCCC1(NCCNC/C=C(\C)CCC=C(C)C)C2CC3CC(C2)CC1C3 (stereo not drawn) is ____.
67

Fill blank: measured inhibition at 2 µM of the compound c1ccc(CCNCCNC2C3CC4CC(C3)CC2C4)cc1 (stereo not drawn) is ____.
80

Fill blank: measured inhibition at 2 µM of the compound CC(C)=CCC/C(C)=C/CNCCNC12CC3CC(CC(C3)C1)C2 is ____.
47

Fill blank: measured inhibition at 2 µM of the compound CC(C)=CCC/C(C)=C/CNCCNC1(c2ccccc2)C2CC3CC(C2)CC1C3 (stereo not drawn) is ____.
63

Fill blank: measured inhibition at 2 µM of the compound CC(C)=CCC/C(C)=C/CNCCNC1(Cc2ccccc2)C2CC3CC(C2)CC1C3 (stereo not drawn) is ____.
26

Fill blank: measured inhibition at 2 µM of the compound CC(C)CCCC(C)CCCC(C)CCNCCNC1C2CC3CC(C2)CC1C3 (stereo not drawn) is ____.
54

Fill blank: measured inhibition at 2 µM of the compound CC(C)CCCC(C)CCNCCNC1C2CC3CC(C2)CC1C3 (stereo not drawn) is ____.
36

* * *

- System: oocyst formation
- Protocol text: Standard membrane feeding assay (SMFA), oocyst formation in Anopheles coluzzii
- Type: in vivo
- Condition context: Plasmodium falciparum; 48 h drug treatment at 2 μM, single biological repeat; read-out: oocyst formation (% inhibition) TRA
- Protocol: Transmission-blocking activity was confirmed in the standard membrane feeding assay (SMFA), by determining transmission-reducing activity (TRA; reduction in oocyst counts) and transmission-blocking activity (TBA, reduction in oocyst prevalence), 8–10 days after feeding female mosquitoes on gametocyte-infected blood, treated with selected compounds (at 2 μM). SMFA was performed using glass feeders as is outlined.[4],[16] […]
Given measured inhibition at 2 µM, output Y if it is greater than or equal to 50% and N if not.

Tell me whether inhibition at 2 µM is at least 50% here: c1ccc(CCNCCNC2C3CC4CC(C3)CC2C4)cc1 (centres unmarked) [Compound 22]
Y

Tell me whether inhibition at 2 µM is at least 50% here: CC(C)CCCC(C)CCCC(C)CCNCCNC1C2CC3CC(C2)CC1C3 (centres unmarked) [Compound 20]
Y

Tell me whether inhibition at 2 µM is at least 50% here: CCCCC1(NCCNC/C=C(\C)CCC=C(C)C)C2CC3CC(C2)CC1C3 (centres unmarked) [Compound 3]
N

Tell me whether inhibition at 2 µM is at least 50% here: CC(C)CCCC(C)CCNCCNC1C2CC3CC(C2)CC1C3 (centres unmarked) [Compound 19]
N

Tell me whether inhibition at 2 µM is at least 50% here: CC(C)=CCC/C(C)=C/CNCCNC12CC3CC(CC(C3)C1)C2 [Compound 9]
Y

* * *

Please provide measured solubility for the entries that follow.
- Protocol text: physchem
- Assay type: physicochemical
- Condition context: 37 °C, pH 6.5, aqueous buffer, thermodynamic from solid
Field format: number, assumed µM, no unit text.

Fill blank: measured solubility of the compound CC(C)=CCC/C(C)=C/CNCCNC1(Cc2ccccc2)C2CC3CC(C2)CC1C3 (centres unmarked) is ____.
13.9

Fill blank: measured solubility of the compound CC(C)=CCC/C(C)=C/CNCCNC(C)(C)C1C2CC3CC(C2)CC1C3 (centres unmarked) is ____.
2340

Fill blank: measured solubility of the compound CC(C)=CCC/C(C)=C/CNCCNCc1ccccc1 is ____.
160

Fill blank: measured solubility of the compound CC(C)=CCC/C(C)=C/CNCCNC1CC2CCC1C2 (centres unmarked) is ____.
155

Fill blank: measured solubility of the compound CC(C)=CCC/C(C)=C/CNCCNC1(C)C2CC3CC(C2)CC1C3 (centres unmarked) is ____.
773

Fill blank: measured solubility of the compound CCC1(NCCNC/C=C(\C)CCC=C(C)C)C2CC3CC(C2)CC1C3 (centres unmarked) is ____.
840

Fill blank: measured solubility of the compound CCCC1(NCCNC/C=C(\C)CCC=C(C)C)C2CC3CC(C2)CC1C3 (centres unmarked) is ____.
334

Fill blank: measured solubility of the compound CC(C)=CCC/C(C)=C/CNCCNC1(c2ccccc2)C2CC3CC(C2)CC1C3 (centres unmarked) is ____.
30

* * *

- Test system: oocyst formation
- Protocol text: Standard membrane feeding assay (SMFA), oocyst formation in Anopheles coluzzii
- Format: in vivo
- Condition context: Plasmodium falciparum; 48 h drug treatment at 2 μM, single biological repeat; read-out: oocyst formation (% inhibition) TRA
Please provide measured inhibition at 2 µM for the entries that follow.
The reply should consist of the numeric value with the unit placed after it.

Fill blank: measured inhibition at 2 µM of the molecule CC(C)=CCC/C(C)=C/CNCCCNC1C2CC3CC(C2)CC1C3 (stereo not drawn) [Compound 13] is ____.
70%

Fill blank: measured inhibition at 2 µM of the molecule CCCC1(NCCNC/C=C(\C)CCC=C(C)C)C2CC3CC(C2)CC1C3 (stereo not drawn) [Compound 6] is ____.
53%

Fill blank: measured inhibition at 2 µM of the molecule CC(C)=CCC/C(C)=C/CNCCNC1(c2ccccc2)C2CC3CC(C2)CC1C3 (stereo not drawn) [Compound 5] is ____.
38%

* * *

- Protocol text: in vitro
- Type: in vitro ADME
- Condition context: mouse, microsomes
Given measured microsomal CLint at 1 µM, output Met if it is greater than or equal to 300 µL/min/mg and Not met if not.

Tell me whether microsomal CLint at 1 µM is at least 300 µL/min/mg here: CC(C)=CCC/C(C)=C/CNCCNC1(C)C2CC3CC(C2)CC1C3 (centres unmarked) [Compound 7]
Met

Tell me whether microsomal CLint at 1 µM is at least 300 µL/min/mg here: CC(C)=CCC/C(C)=C/CNCCNC1(c2ccccc2)C2CC3CC(C2)CC1C3 (centres unmarked) [Compound 5]
Met

Tell me whether microsomal CLint at 1 µM is at least 300 µL/min/mg here: CC(C)=CCC/C(C)=C/CNCCNC(C)(C)C1C2CC3CC(C2)CC1C3 (centres unmarked) [Compound 8]
Not met

Tell me whether microsomal CLint at 1 µM is at least 300 µL/min/mg here: CC(C)=CCC/C(C)=C/CNCCNC1C2CC3CC(C2)CC1C3 (centres unmarked) [Compound 1, reference compound]
Met

* * *

- Protocol text: HepG2 cytotoxicity, LDH release assay
- Condition context: human, HepG2 cells
Please provide measured viability at 24 h, 20 µM for the entries that follow.
Field format: number, assumed %, no unit text.

Fill blank: measured viability at 24 h, 20 µM of the compound c1ccc(CCNCCNC2C3CC4CC(C3)CC2C4)cc1 (centres unmarked) is ____.
100

Fill blank: measured viability at 24 h, 20 µM of the compound CC(C)=CCC/C(C)=C/CNCCOC1C2CC3CC(C2)CC1C3 (centres unmarked) is ____.
99

Fill blank: measured viability at 24 h, 20 µM of the compound CC(C)=CCNCCNC1C2CC3CC(C2)CC1C3 (centres unmarked) is ____.
99

Fill blank: measured viability at 24 h, 20 µM of the compound CC(C)=CCC/C(C)=C/COCCNC1C2CC3CC(C2)CC1C3 (centres unmarked) is ____.
100

Fill blank: measured viability at 24 h, 20 µM of the compound CC(C)=CCC/C(C)=C/CNCCNC1CC2CCC1C2 (centres unmarked) is ____.
97

Fill blank: measured viability at 24 h, 20 µM of the compound CC(C)=CCC/C(C)=C/CC/C(C)=C/CNCCNC1C2CC3CC(C2)CC1C3 (centres unmarked) is ____.
75

Fill blank: measured viability at 24 h, 20 µM of the compound CC(C)=CCC/C(C)=C/CN(C)CCNC1C2CC3CC(C2)CC1C3 (centres unmarked) is ____.
100

Fill blank: measured viability at 24 h, 20 µM of the compound C1CCC(CCNCCNC2C3CC4CC(C3)CC2C4)CC1 (centres unmarked) is ____.
27

Fill blank: measured viability at 24 h, 20 µM of the compound CC(C)=CCC/C(C)=C/CNCCNC1CC2CCC1CC2 (centres unmarked) is ____.
100

Fill blank: measured viability at 24 h, 20 µM of the compound c1ccc(CNCCNC2C3CC4CC(C3)CC2C4)cc1 (centres unmarked) is ____.
91

Fill blank: measured viability at 24 h, 20 µM of the compound CC(C)=CCC/C(C)=C/CNCCNCc1ccccc1 is ____.
94
